Biological target: DPP1 in HL-60 cells (Homo sapiens)
Sequence (P53634 25-463): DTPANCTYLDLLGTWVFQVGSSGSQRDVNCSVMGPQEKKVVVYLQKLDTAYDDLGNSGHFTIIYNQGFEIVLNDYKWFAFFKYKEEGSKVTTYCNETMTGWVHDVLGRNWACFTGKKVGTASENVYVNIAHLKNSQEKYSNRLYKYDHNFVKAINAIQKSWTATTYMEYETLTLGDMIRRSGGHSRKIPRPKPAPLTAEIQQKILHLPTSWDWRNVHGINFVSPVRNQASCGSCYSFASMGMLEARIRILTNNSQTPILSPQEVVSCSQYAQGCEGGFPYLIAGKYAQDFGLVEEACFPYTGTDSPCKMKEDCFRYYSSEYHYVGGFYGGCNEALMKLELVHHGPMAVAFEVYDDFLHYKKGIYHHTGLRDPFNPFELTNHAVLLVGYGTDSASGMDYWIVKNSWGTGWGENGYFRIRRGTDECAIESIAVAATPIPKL
Assay: DPP1 Cell Single-Point Percent Inhibition Testing
Format: cell-based
Parameters: host or cells: HL-60 cells
Conditions: final compound concentration 5 nM, n = 1
In this section, each of the molecules is paired with its reported inhibition at 0.005 µM.
OUTCOME MEASURE: inhibition at 0.005 µM

>  <MOLECULE>
N#Cc1ccc2c(c1)COc1cc(C[C@@H](C#N)NC(=O)[C@@H]3CNCCCO3)c(F)cc1-2 [Compound B32]

>  <REPORTED RESULT>
76.5 to 93.9%

$$$$
>  <MOLECULE>
CCCN1CCC2(CC1)SCCc1ccc(-c3ccc(C[C@@H](C#N)NC(=O)[C@@H]4CNCCCO4)cc3)cc12 [Compound I3]

>  <REPORTED RESULT>
≤ 76.5%

$$$$
>  <MOLECULE>
N#Cc1ccc2c(c1)-c1cc(F)c(CC(C#N)NC(=O)[C@@H]3CNCCCCO3)cc1OC2 (stereo partly shown) [Compound B29]

>  <REPORTED RESULT>
≤ 76.5%

$$$$
>  <MOLECULE>
C[C@@H]1NC[C@@H](C(=O)N[C@H](C#N)Cc2ccc(-c3ccc4c(n3)CCCN4)cc2F)OC[C@H]1O [Compound A101]

>  <REPORTED RESULT>
76.5 to 93.9%

$$$$
>  <MOLECULE>
CO[C@@H]1CCNC[C@@H](C(=O)N[C@H](C#N)Cc2ccc(-c3ccc4nnn(C)c4c3)cc2)OC1 [Compound H6]

>  <REPORTED RESULT>
≤ 76.5%

$$$$
>  <MOLECULE>
Cc1cn2cc(-c3ccc(C[C@@H](C#N)NC(=O)[C@@H]4CN[C@@H](C)[C@@H](O)CO4)c(F)c3)cc2c(C)n1 [Compound A106]

>  <REPORTED RESULT>
≤ 76.5%

$$$$
>  <MOLECULE>
CN1CC2(C1)OC(=O)c1ccc(-c3ccc(C[C@@H](C#N)NC(=O)[C@@H]4CNCCCCO4)cc3)cc12 [Compound 37]

>  <REPORTED RESULT>
≤ 76.5%

$$$$
>  <MOLECULE>
CN1CCCC2(C1)C(=O)N(C)c1ccc(-c3ccc(C[C@@H](C#N)NC(=O)[C@@H]4CNCCCCO4)cc3)cc12 (stereo partly shown) [Compound 36]

>  <REPORTED RESULT>
≤ 76.5%

$$$$
>  <MOLECULE>
CO[C@H]1CCO[C@H](C(=O)N[C@H](C#N)Cc2ccc(-c3ccc4c(c3)C3(CCN(C5COC5)CC3)OC4)cc2)CNC1 [Compound F22]

>  <REPORTED RESULT>
≤ 76.5%

$$$$
>  <MOLECULE>
CO[C@@H]1CCNC[C@@H](C(=O)NC(C#N)Cc2cc3c(cc2F)-c2cc(C#N)ccc2CO3)OC1 (stereo partly shown) [Compound B21]

>  <REPORTED RESULT>
76.5 to 93.9%

$$$$

====

In this section, each of the compounds is paired with its reported pIC50.
Molecular target: human DPP1 enzyme (Homo sapiens)
Sequence (P53634 25-134 limits assumed): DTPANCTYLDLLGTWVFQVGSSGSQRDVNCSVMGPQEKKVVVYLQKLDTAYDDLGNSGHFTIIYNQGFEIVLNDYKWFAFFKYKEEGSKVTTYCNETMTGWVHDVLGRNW
Sequence (P53634 231-394 limits assumed): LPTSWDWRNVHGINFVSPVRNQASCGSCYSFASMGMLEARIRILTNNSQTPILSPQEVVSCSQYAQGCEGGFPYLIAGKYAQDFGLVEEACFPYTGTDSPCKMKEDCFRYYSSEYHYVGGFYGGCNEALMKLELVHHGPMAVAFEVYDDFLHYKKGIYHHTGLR
Sequence (P53634 395-463 limits assumed): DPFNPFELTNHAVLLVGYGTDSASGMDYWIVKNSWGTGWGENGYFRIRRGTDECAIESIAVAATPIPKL
Assay: Human DPP1 Enzyme IC50 Assay
Format: biochemical
Parameters: was first proteolytically processed into its mature form using recombinant human cathepsin L; purchased R&D Systems
Conditions: activated recombinant human DPP1, 400 μM H-Gly-Arg-AMC, 10 minutes pre-incubation at 37° C., pH 6.0; average of n runs; read-out: Avg. IC50 (Human DPP1 enzyme IC50 value ranges)
pIC50: −log10 of the molar value.

>  <COMPOUND>
CN1C(=O)C2(CCCN(C3COC3)C2)c2cc(-c3ccc(C[C@@H](C#N)NC(=O)[C@@H]4CNCCCO4)cc3)ccc21 (stereo partly drawn)

>  <pIC50>
< 7.82

$$$$
>  <COMPOUND>
CO[C@@H]1CCNC[C@@H](C(=O)N[C@H](C#N)Cc2ccc(-c3ccc(C#N)cc3)cc2F)OC1

>  <pIC50>
> 8.30

$$$$
>  <COMPOUND>
CN1CCC2(CC1)C(=O)Nc1ccc(-c3ccc(C[C@@H](C#N)NC(=O)[C@@H]4CNCCCO4)cc3)cc12

>  <pIC50>
< 7.82

$$$$
>  <COMPOUND>
Cn1c(=O)oc2cc3c(cc21)-c1cc(F)c(C[C@@H](C#N)NC(=O)[C@@H]2CNCCCO2)cc1OC3

>  <pIC50>
> 8.30

$$$$
>  <COMPOUND>
N#C[C@H](Cc1ccc(-c2ccc(S(F)(F)(F)(F)F)cc2)cc1)NC(=O)[C@@H]1CNCCCO1

>  <pIC50>
< 7.82

$$$$
>  <COMPOUND>
N#C[C@H](Cc1ccc(-c2ccc3c(c2)C2(CCNCC2)C(=O)C3)cc1)NC(=O)[C@@H]1CNCCCO1

>  <pIC50>
7.82 to 8.30

$$$$
>  <COMPOUND>
CN1CC[C@]2(C1)C(=O)OCc1ccc(-c3ccc(C[C@@H](C#N)NC(=O)[C@@H]4CNCCCO4)cc3)cc12

>  <pIC50>
7.82 to 8.30

$$$$
>  <COMPOUND>
CO[C@H]1CCO[C@H](C(=O)N[C@H](C#N)Cc2ccc(-c3cc4c(C)nc(C)cn4c3)cc2)CNC1 [Compound A92]

>  <pIC50>
< 7.82

$$$$
>  <COMPOUND>
Cn1nnc2cc3c(cc21)-c1cc(F)c(C[C@@H](C#N)NC(=O)[C@@H]2CNCCCO2)cc1OC3

>  <pIC50>
> 8.30

$$$$

Taken from patent US20260008760A1.
